All figures here come from ChEMBL document CHEMBL1147040.

Parameter Ki: see the listing below.
target: Protease (Human immunodeficiency virus 1, UniProt Q9YQ12)
Sequence (Q9YQ12 whole entry): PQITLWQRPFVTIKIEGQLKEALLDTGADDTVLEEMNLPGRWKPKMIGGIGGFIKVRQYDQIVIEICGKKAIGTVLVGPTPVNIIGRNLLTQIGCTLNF

| COMPOUND | SUBJECT OF TEST | Ki, pM |
| --- | --- | --- |
| CC(C)CN(C[C@@H](O)[C@H](Cc1ccccc1)NC(=O)O[C@H]1CO[C@H]2OCC[C@H]21)S(=O)(=O)c1ccc2c(c1)OCO2 | Protease (Human immunodeficiency virus 1, UniProt Q9YQ12) | 14 |
| CC(C)CN(C[C@@H](O)[C@H](Cc1ccccc1)NC(=O)O[C@@H]1C[C@@H]2CCO[C@@H]2C1)S(=O)(=O)c1ccc(CO)cc1 | Protease (Human immunodeficiency virus 1, UniProt Q9YQ12) | 3.5 |
| Cc1nc(COc2ccc(C[C@H](NC(=O)O[C@H]3CO[C@H]4OCC[C@H]43)[C@H](O)CN(CC(C)C)S(=O)(=O)c3ccc4c(c3)OCO4)cc2)cs1 [BRECANAVIR] | Protease (Human immunodeficiency virus 1, UniProt Q9YQ12) | 6.8 |
